The measurements presented in this section are drawn from patent US8674113B2.

Target: mPGES-1 in A549 cells (Homo sapiens (Human))
Assay: A549 cell-based assay (PGE2 formation, 50% human serum)
Conditions: IL-1β 5 ng/ml, 10 nM arachidonic acid, 20-24 h, read-out: mPGES-1 inhibitory effect IC50 in the cell assay
Procedure: Although the enzymatic assay is a high throughput assay the disadvantage is that it uses a recombinant protein which is not in its natural environment. Accordingly a cellular assay was established in which a cell line of human origin (A549) expressing the mPGES-1 protein was used. […] Concentrations of PGE2 in the cell free medium (10 μl) were measured using a commercially available HTRF kit from Cisbio (as described above). […]
MEASURED QUANTITY: log10 IC50 (log10 of the value in nM)
Friendly reminder: values = log10 of IC50, unit nM.

Look over these answered cases.
# COMPOUND, TESTED ON, MEASURED QUANTITY, ASSAY RESULT
measured = [
    ("Cn1c(Nc2c(Cl)ccc(CNC(=O)C(C)(C)C)c2Cl)nc2cc(C(=O)N[C@H]3CC[C@H](C(F)(F)F)CC3)c(N3CCCC(C(F)(F)F)C3)cc21 (stereo partly drawn)", "mPGES-1 in A549 cells (Homo sapiens (Human))", "log10 IC50", 0.00),
    ("Cn1c(Nc2c(Cl)ccc(CNC(=O)C(C)(C)C)c2Cl)nc2cc(C(=O)N[C@H]3CC[C@H](C(F)(F)F)CC3)c(N3CCC(C(F)(F)F)C3)cc21 (stereo partly drawn)", "mPGES-1 in A549 cells (Homo sapiens (Human))", "log10 IC50", 0.00),
    ("Cn1c(Nc2c(Cl)ccc(CNC(=O)[C@](C)(O)C(F)(F)F)c2Cl)nc2cc(C(=O)N[C@H]3CC[C@H](C(F)(F)F)CC3)c(N3CCC(C(F)(F)F)CC3)cc21", "mPGES-1 in A549 cells (Homo sapiens (Human))", "log10 IC50", 0.15),
    ("Cn1c(Nc2c(Cl)ccc(CNC(=O)C(C)(C)F)c2Cl)nc2cc(C(=O)N[C@H]3CC[C@H](C(F)(F)F)CC3)c(N3CCC(C(F)(F)F)CC3)cc21", "mPGES-1 in A549 cells (Homo sapiens (Human))", "log10 IC50", 0.78),
    ("Cn1c(Nc2c(Cl)ccc(CNC(=O)C(C)(C)F)c2Cl)nc2cc(C(=O)N[C@H]3CC[C@H](C(F)(F)F)CC3)c(N3CC[C@@H](F)C3)cc21", "mPGES-1 in A549 cells (Homo sapiens (Human))", "log10 IC50", 0.00),
    ("Cn1c(Nc2c(Cl)ccc(CNC(=O)C(C)(C)C)c2Cl)nc2cc(C(=O)N[C@H]3CC[C@H](C(F)(F)F)CC3)c(N3CC(C)(O)C3)cc21", "mPGES-1 in A549 cells (Homo sapiens (Human))", "log10 IC50", 0.70),
    ("Cn1c(Nc2c(Cl)ccc(CNC(=O)C(C)(C)CO)c2Cl)nc2cc(C(=O)NCCC(F)(F)F)c(N3CCC(C(F)(F)F)CC3)cc21", "mPGES-1 in A549 cells (Homo sapiens (Human))", "log10 IC50", 0.85),
    ("Cn1c(Nc2c(Cl)ccc(CNC(=O)[C@](C)(O)C(F)(F)F)c2Cl)nc2cc(C(=O)Nc3cccc(C(F)(F)F)n3)c(N3CCC(C(F)(F)F)CC3)cc21", "mPGES-1 in A549 cells (Homo sapiens (Human))", "log10 IC50", 1.43),
    ("Cn1c(Nc2c(Cl)ccc(CNC(=O)C(C)(C)C)c2Cl)nc2cc(C(=O)N[C@H]3CC[C@H](C(F)(F)F)CC3)c(NCCCO)cc21", "mPGES-1 in A549 cells (Homo sapiens (Human))", "log10 IC50", 1.93),
    ("Cn1c(Nc2c(Cl)ccc(CNC(=O)C(C)(C)F)c2Cl)nc2cc(C(=O)Nc3ccc(F)c(Cl)c3)c(N3CCC(C(F)(F)F)CC3)cc21", "mPGES-1 in A549 cells (Homo sapiens (Human))", "log10 IC50", 0.04),
]

Need log10 IC50 for each of these compounds.
1. Cn1c(Nc2c(Cl)ccc(CNC(=O)C(C)(C)C)c2Cl)nc2cc(C(=O)N[C@H]3CC[C@H](C(F)(F)F)CC3)c(N3CCNC(C(F)(F)F)C3)cc21 (stereo partly drawn)
2. Cn1c(Nc2c(Cl)ccc(CNC(=O)C(C)(C)C)c2Cl)nc2cc(C(=O)NC3CC(F)(F)C3)c(NCC(F)F)cc21

1. 0.00
2. 2.29

----------
Molecular target: recombinant human mPGES-1 (Homo sapiens (Human))
Sequence (O14684 whole entry): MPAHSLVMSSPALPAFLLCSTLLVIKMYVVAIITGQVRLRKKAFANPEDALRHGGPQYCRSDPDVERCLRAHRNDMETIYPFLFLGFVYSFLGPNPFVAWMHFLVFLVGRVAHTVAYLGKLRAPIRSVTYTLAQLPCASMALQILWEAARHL
Experiment: mPGES-1 enzyme assay (HTRF detection of PGE2)
Assay type: biochemical
Details: recombinant human mPGES-1 microsomes, PGH2 2 μM, 60 seconds; read-out: mPGES-1 inhibitory effect IC50 in the enzyme assay
Hi there, I'd appreciate the recorded pIC50 for every entry that follows.
Numbers only, as −log10 of the molar value.

Look over these answered cases.
# MOLECULE, ASSAY RESULT
rows = [
    ("COC1CN(c2cc3c(cc2C(=O)N[C@H]2CC[C@H](C(F)(F)F)CC2)nc(Nc2c(Cl)ccc(CNC(=O)C(C)(C)C)c2Cl)n3C)C1 [Example 98]", 8.30),
    ("Cn1c(Nc2c(Cl)ccc(CNC(=O)C(C)(C)C)c2Cl)nc2cc(C(=O)N[C@H]3CC[C@H](C(F)(F)F)CC3)c(N3CCN(CC(F)(F)F)CC3)cc21 [Example 132]", 8.30),
    ("Cc1c(N2CC3CC3C2)c(C(=O)N[C@H]2CC[C@H](C(F)(F)F)CC2)cc2nc(Nc3c(Cl)ccc(CNC(=O)C(C)(C)C)c3Cl)n(C)c12 (stereo partly drawn) [Example 144]", 8.30),
    ("Cn1c(Nc2c(Cl)ccc(CNC(=O)C(C)(C)C)c2Cl)nc2cc(C(=O)NC(Cc3ccccc3)C(F)(F)F)c(N3CCC(F)(F)C3)cc21 (stereo not drawn) [Example 48]", 8.70),
    ("CC(C)(O)Cn1c(Nc2c(Cl)ccc(CNC(=O)C(C)(C)C)c2Cl)nc2cc(C(=O)N[C@H]3CC[C@H](C(F)(F)F)CC3)c(N3CCOCC3)cc21 [Example 168]", 8.52),
]

// fetch pIC50; item: CC(C)(O)Cn1c(Nc2c(Cl)ccc(CNC(=O)C(C)(C)C)c2Cl)nc2cc(C(=O)N[C@H]3CC[C@H](C(F)(F)F)CC3)c(N3CCC(C(F)(F)F)CC3)cc21 [Example 165] ; system: recombinant human mPGES-1 (Homo sapiens (Human)) 8.70

----------
Biological target: mPGES-1 in A549 cells (Homo sapiens (Human), UniProt O14684)
Sequence (O14684 whole entry): as above
Experiment: A549 cell-based assay (PGE2 formation, 50% human serum)
Details: IL-1β 5 ng/ml, 10 nM arachidonic acid, 20-24 h, read-out: mPGES-1 inhibitory effect IC50 in the cell assay
MEASURED QUANTITY: pIC50
Answers are plain numbers, as −log10 of the molar value.

# MOLECULE, TESTED ON, pIC50
data = [
    ("Cn1c(Nc2c(Cl)ccc(CNC(=O)C(C)(C)C)c2Cl)nc2cc(C(=O)N[C@H]3CC[C@H](C(F)(F)F)CC3)c(N3CC4CC4C3)cc21 (some centres unmarked) [Example 22]", "mPGES-1 in A549 cells (Homo sapiens (Human), UniProt O14684)", 8.82),
]

Need pIC50 for each of these molecules.
1. Cn1c(Nc2c(Cl)ccc(CNC(=O)C(C)(C)C)c2Cl)nc2cc(C(=O)NCC(F)(F)F)c(N3CCC(C(C)(C)O)CC3)cc21 [Example 29]
2. Cn1c(Nc2c(Cl)ccc(CNC(=O)C(C)(C)C)c2Cl)nc2cc(C(=O)N[C@H]3CC[C@H](C(F)(F)F)CC3)c(N3CC4(CCC4)C3)cc21 [Example 94]
3. Cn1c(Nc2c(Cl)ccc(CNC(=O)C(C)(C)C(F)(F)F)c2Cl)nc2cc(C(=O)Nc3ccc(F)c(Cl)c3)c(N3CC[C@@H](F)C3)cc21 [Example 236]
4. Cn1c(Nc2c(Cl)ccc(CNC(=O)c3c[nH]cn3)c2Cl)nc2cc(C(=O)N[C@H]3CC[C@H](C(F)(F)F)CC3)c(N3CC4CC4C3)cc21 (some centres unmarked) [Example 220]
5. Cn1c(Nc2c(Cl)ccc(CNC(=O)C(C)(C)C)c2Cl)nc2cc(C(=O)Nc3ccc(OC(F)(F)F)cc3)c(N3CCCC(C(F)(F)F)C3)cc21 (centres unmarked) [Example 136]
6. Cn1c(Nc2c(Cl)ccc(CNC(=O)C(C)(C)C)c2Cl)nc2cc(C(=O)N[C@H]3CC[C@H](C(F)(F)F)CC3)c(N3CCC(O)C3)cc21 (some centres unmarked) [Example 84]

1. 8.52
2. 8.22
3. 8.70
4. 6.92
5. 9.00
6. 7.80
